biological target: human V1a receptor (Homo sapiens (Human), UniProt P37288); experiment: Cellular in vitro assay for determining vasopressin receptor activity (V1a, aequorin luminescence); conditions: CHO cell line transfected with human V1a receptor; [Arg8]-vasopressin at EC50 concentration; read-out: IC50 hV1a
Sequence (P37288 whole entry): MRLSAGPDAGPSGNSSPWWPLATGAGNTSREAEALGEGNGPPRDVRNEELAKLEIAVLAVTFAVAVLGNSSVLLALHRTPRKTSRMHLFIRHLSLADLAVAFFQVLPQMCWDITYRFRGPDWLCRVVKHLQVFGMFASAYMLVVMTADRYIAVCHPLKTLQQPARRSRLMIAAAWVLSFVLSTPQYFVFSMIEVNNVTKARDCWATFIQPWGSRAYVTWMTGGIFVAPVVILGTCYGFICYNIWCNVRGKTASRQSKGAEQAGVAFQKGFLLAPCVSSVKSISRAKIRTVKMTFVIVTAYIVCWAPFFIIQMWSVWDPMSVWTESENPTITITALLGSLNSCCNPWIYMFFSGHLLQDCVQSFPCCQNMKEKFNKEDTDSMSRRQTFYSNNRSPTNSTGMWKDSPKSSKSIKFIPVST
Listed here: items and their measured IC50.
Note: unit nM is implicit; provide only the numeric part.

Reference set, count: 3
CC(C)(C)OC(=O)N1CCC(C(=O)NC(Cn2c(-c3ccc(Cl)cc3)nn(Cc3ncn(-c4ncccc4Cl)n3)c2=O)C(F)(F)F)C1 (centres unmarked) [Example 23]; 1.01
O=C(NC(Cn1c(-c2ccc(Cl)cc2)nn(Cc2ncn(-c3ncccc3Cl)n2)c1=O)C(F)(F)F)[C@@H]1C[C@@H](F)CN1 (mixture of isomers) [Example 49]; 3.35
CS(=O)(=O)NCC(=O)NC(Cn1c(-c2ccc(Cl)cc2)nn(Cc2ncn(-c3ncccc3Cl)n2)c1=O)C(F)(F)F (racemic) [Example 19]; 2.2

The reported IC50 of the compound CC(F)C(=O)NC(Cn1c(-c2ccc(Cl)cc2)nn(Cc2ncn(-c3ncccc3Cl)n2)c1=O)C(F)(F)F (centres unmarked) [Example 10] was 6.1

The reported IC50 of the compound O=C(NC(Cn1c(-c2ccc(Cl)cc2)nn(Cc2ncn(-c3ncccc3Cl)n2)c1=O)C(F)(F)F)C1CC(F)(F)C1 (racemic) [Example 15] was 2.05

The reported IC50 of the compound CS(=O)(=O)CC(=O)NC(Cn1c(-c2ccc(Cl)cc2)nn(Cc2ncn(-c3ncccc3C(F)(F)F)n2)c1=O)C(F)(F)F (racemic) [Example 64] was 1.2

The reported IC50 of the compound CC(C)(C)OC(=O)N1CCC1C(=O)NC(Cn1c(-c2ccc(Cl)cc2)nn(Cc2ncn(-c3ncccc3Cl)n2)c1=O)C(F)(F)F (centres unmarked) [Example 56] was 8.1

The reported IC50 of the compound O=C(NC(Cn1c(-c2ccc(Cl)cc2)nn(Cc2ncn(-c3ncccc3Cl)n2)c1=O)C(F)(F)F)C1CC1F (centres unmarked) [Example 12] was 22.5

---

target: human V1a receptor (Homo sapiens (Human), UniProt P37288); experiment: Cellular in vitro assay for determining vasopressin receptor activity (V1a, aequorin luminescence); format: cell-based; conditions: selectivity, IC50 hV2 divided by IC50 hV1a
property label: ratio IC50 hV2/hV1a
Write the number on its own, no unit after it.

Reference set, count: 2
O=C1CC[C@@H](C(=O)NC(Cn2c(-c3ccc(Cl)cc3)nn(Cc3ncn(-c4ncccc4Cl)n3)c2=O)C(F)(F)F)N1 (single isomer, unassigned) [Example 36]; 254.3
O=C(NC(Cn1c(-c2ccc(Cl)cc2)nn(Cc2ncn(-c3ncccc3Cl)n2)c1=O)C(F)(F)F)C1(O)CC1 (racemic); 37.0

The reported ratio IC50 hV2/hV1a of the molecule CC(F)(F)C(=O)NC(Cn1c(-c2ccc(Cl)cc2)nn(Cc2ncn(-c3ncccc3C(F)(F)F)n2)c1=O)C(F)(F)F (racemic) was 83.8

---

biological target: human V2 receptor (Homo sapiens (Human), UniProt P30518); assay: Cellular in vitro assay for determining vasopressin receptor activity (V2, CRE-luciferase); conditions: CHO cell line transfected with human V2 receptor; [Arg8]-vasopressin at EC50 concentration; read-out: IC50 hV2
Sequence (P30518 whole entry): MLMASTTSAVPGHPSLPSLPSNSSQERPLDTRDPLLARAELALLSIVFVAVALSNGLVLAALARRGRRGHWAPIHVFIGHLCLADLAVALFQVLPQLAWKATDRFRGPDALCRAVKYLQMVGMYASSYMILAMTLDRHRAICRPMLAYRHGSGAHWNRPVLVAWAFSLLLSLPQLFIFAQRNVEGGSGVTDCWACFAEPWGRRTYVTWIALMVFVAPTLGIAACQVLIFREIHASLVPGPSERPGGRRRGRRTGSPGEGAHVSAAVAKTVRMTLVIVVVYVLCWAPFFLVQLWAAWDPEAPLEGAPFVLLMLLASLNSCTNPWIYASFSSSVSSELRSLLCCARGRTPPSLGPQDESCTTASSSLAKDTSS
property label: IC50 (nM)
Note: unit nM is implicit; provide only the numeric part.

Reference set, count: 5
O=C(CC(F)(F)F)NC(Cn1c(-c2ccc(Cl)cc2)nn(Cc2ncn(-c3ncccc3C(F)(F)F)n2)c1=O)C(F)(F)F (racemic); 57
O=C(NC(Cn1c(-c2ccc(Cl)cc2)nn(Cc2ncn(-c3ncccc3Cl)n2)c1=O)C(F)(F)F)[C@@H]1CC(C(F)(F)F)CN1 (stereo partly drawn); 150
CC(F)(F)C(=O)NC(Cn1c(-c2ccc(Cl)cc2)nn(Cc2ncn(-c3ncccc3C(F)(F)F)n2)c1=O)C(F)(F)F (racemic); 1550
CC(F)(F)C(=O)NC(Cn1c(-c2ccc(Cl)cc2)nn(Cc2ncn(-c3ncccc3Cl)n2)c1=O)C(F)(F)F (racemic); 660
Cl.O=C(NC(Cn1c(-c2ccc(Cl)cc2)nn(Cc2ncn(-c3ncccc3C(F)(F)F)n2)c1=O)C(F)(F)F)[C@@H]1C[C@H](F)CN1 (stereo partly drawn); 275

The reported IC50 of the compound O=C(NC(Cn1c(-c2ccc(Cl)cc2)nn(Cc2ncn(-c3ncccc3Cl)n2)c1=O)C(F)(F)F)C1COC1 (racemic) was 245

---

target: human V1a receptor (Homo sapiens (Human)); assay: Cellular in vitro assay for determining vasopressin receptor activity (V1a, aequorin luminescence); settings: CHO cell line transfected with human V1a receptor; [Arg8]-vasopressin at EC50 concentration; read-out: IC50 hV1a
property label: pIC50
In plain terms, pIC50 is the concentration in mol/L turned into minus its base-10 logarithm.

The reported pIC50 of the compound CC(=O)OC(C)(C)C(=O)NC(Cn1c(-c2ccc(Cl)cc2)nn(Cc2ncn(-c3ncccc3Cl)n2)c1=O)C(F)(F)F (racemic) [Example 16] was 8.30

The reported pIC50 of the compound O=C(NC(Cn1c(-c2ccc(Cl)cc2)nn(Cc2ncn(-c3ncccc3C(F)(F)F)n2)c1=O)C(F)(F)F)C1CC(F)(F)C1 (racemic) [Example 63] was 9.14

The reported pIC50 of the compound O=C(NC(Cn1c(-c2ccc(Cl)cc2)nn(Cc2ncn(-c3ncccc3Cl)n2)c1=O)C(F)(F)F)C1NCC1(F)F (stereo not drawn) [Example 55] was 8.71

The reported pIC50 of the compound O=C(N[C@@H](Cn1c(-c2ccc(Cl)cc2)nn(Cc2ncn(-c3ncccc3Cl)n2)c1=O)C(F)(F)F)C1(C(F)(F)F)CC1 [Example 43] was 8.85

The reported pIC50 of the compound CC(C)(C)OC(=O)NC1(C(=O)NC(Cn2c(-c3ccc(Cl)cc3)nn(Cc3ncn(-c4ncccc4Cl)n3)c2=O)C(F)(F)F)CCC1 (stereo not drawn) [Example 28] was 8.73

---

molecular target: UniProt:P30518; experiment: Cellular in vitro assay for determining vasopressin receptor activity (V2, CRE-luciferase); settings: CHO cell line transfected with human V2 receptor; [Arg8]-vasopressin at EC50 concentration; read-out: IC50 hV2
property label: IC50 (nM)
Note: unit nM is implicit; provide only the numeric part.

Reference set, count: 2
O=C(NC(Cn1c(-c2ccc(Cl)cc2)nn(Cc2ncn(-c3ncccc3Cl)n2)c1=O)C(F)(F)F)C1CC1 (racemic); 220
O=C(NC(Cn1c(-c2ccc(Cl)cc2)nn(Cc2ncn(-c3ncccc3Cl)n2)c1=O)C(F)(F)F)C1CC1F (stereo not drawn); 560

We now examine a further compound.
The reported IC50 of the compound O=C(NC(Cn1c(-c2ccc(Cl)cc2)nn(Cc2ncn(-c3ncccc3Cl)n2)c1=O)C(F)(F)F)C1CS(=O)(=O)C1 (single isomer, unassigned) [Example 39] was 53.2

---

target: human V1a receptor (Homo sapiens (Human)); test: Cellular in vitro assay for determining vasopressin receptor activity (V1a, aequorin luminescence); format: cell-based; conditions: selectivity, IC50 hV2 divided by IC50 hV1a
Note to self: ratio IC50 hV2/hV1a under 50 means t, ties and anything higher get f.

Below are worked cases with known answers.
O=C(NC(Cn1c(-c2ccc(Cl)cc2)nn(Cc2ncn(-c3ncccc3Cl)n2)c1=O)C(F)(F)F)[C@@H]1CC(C(F)(F)F)CN1 (stereo partly drawn) [Example 50]; t
CCC(=O)NC(Cn1c(-c2ccc(Cl)cc2)nn(Cc2ncn(-c3ncccc3Cl)n2)c1=O)C(F)(F)F (racemic) [Example 13]; t
N#CC1(C(=O)NC(Cn2c(-c3ccc(Cl)cc3)nn(Cc3ncn(-c4ncccc4Cl)n3)c2=O)C(F)(F)F)CC1 (racemic) [Example 21]; t
Cl.O=C(NC(Cn1c(-c2ccc(Cl)cc2)nn(Cc2ncn(-c3ncccc3C(F)(F)F)n2)c1=O)C(F)(F)F)C1NCC1(F)F (stereo not drawn) [Example 69]; f
O=C(CN1CCOC1=O)NC(Cn1c(-c2ccc(Cl)cc2)nn(Cc2ncn(-c3ncccc3Cl)n2)c1=O)C(F)(F)F (racemic) [Example 20]; f

Inquiry: Determine if COCC(=O)NC(Cn1c(-c2ccc(Cl)cc2)nn(Cc2ncn(-c3ncccc3C(F)(F)F)n2)c1=O)C(F)(F)F (racemic) [Example 68] shows ratio IC50 hV2/hV1a strictly lower than 50.
Reply text: f

---

biological target: human V2 receptor (Homo sapiens (Human), UniProt P30518); assay: Cellular in vitro assay for determining vasopressin receptor activity (V2, CRE-luciferase); settings: CHO cell line transfected with human V2 receptor; [Arg8]-vasopressin at EC50 concentration; read-out: IC50 hV2
pIC50: −log10 of the molar value.
Threshold rule: pIC50 greater than or equal to 7 is Satisfied; below that, Not satisfied.

Below are worked cases with known answers.
NC1(C(=O)NC(Cn2c(-c3ccc(Cl)cc3)nn(Cc3ncn(-c4ncccc4Cl)n3)c2=O)C(F)(F)F)CC1 (racemic); Not satisfied
O=C(NC(Cn1c(-c2ccc(Cl)cc2)nn(Cc2ncn(-c3ncccc3Cl)n2)c1=O)C(F)(F)F)C1CC1C(F)(F)F (centres unmarked); Satisfied
CC(C)(C)OC(=O)N1CC(F)(F)C1C(=O)NC(Cn1c(-c2ccc(Cl)cc2)nn(Cc2ncn(-c3ncccc3Cl)n2)c1=O)C(F)(F)F (centres unmarked); Not satisfied
O=C(CC(F)(F)F)NC(Cn1c(-c2ccc(Cl)cc2)nn(Cc2ncn(-c3ncccc3Cl)n2)c1=O)C(F)(F)F (racemic); Satisfied

Inquiry: Please check the record O=C1NCCC1C(=O)NC(Cn1c(-c2ccc(Cl)cc2)nn(Cc2ncn(-c3ncccc3Cl)n2)c1=O)C(F)(F)F (centres unmarked) and state if its pIC50 is at or above 7.
Reply text: Not satisfied
